Target: T1, MACP, CP of an uncharacterized NRP/PK gene cluster from M. aeruginosa NIES843
T1 chain: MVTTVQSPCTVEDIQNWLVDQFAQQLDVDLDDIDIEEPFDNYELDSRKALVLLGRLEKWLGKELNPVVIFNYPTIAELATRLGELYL
METRIC: kcat/Km (M⁻¹ s⁻¹)
Your answer should be a plain number; it is taken to be in M⁻¹ s⁻¹.

The value of kcat/Km measured for the protein APPT, Sfp-like phosphopantetheinyl transferase (PPTase) from Anabaena sp. PCC7120 (protein) MLQHTWLPKPPNLTLLSDEVHLWRIPLDQPESQLQDLAATLSSDELARANRFYFPEHRRRFTAGRGILRSILGGYLGVEPGQVKFDYESRGKPILGDRFAESGLLFNLSHSQNLALCAVNYTRQIGIDLEYLRPTSDLESLAKRFFLPREYELLRSLPDEQKQKIFFRYWTCKEAYLKATGDGIAKLEEIEIALTPTEPAKLQTAPAWSLLELVPDDNCVAAVAVAGFGWQPKFWHY turned out to be 8330

GET /value?item= MPPT, Sfp-like phosphopantetheinyl transferase (PPTase) from Microcystis aeruginosa NIES843 (protein) MFISTDEVHLYFISLDPSGDRLETLASLLSEDEIIRANRYHFPEHKRRFLVARGCLREILGSYLAISPEKIEFIYSERGKPSINYQLQFNLSHSEEMAICGLTLTARIGVDLEKMRQMKDLDSLTKRFFCAREHELVEKSAEKEKLFFQLWTAKEAYLKAVGTGISGGLDRVEVGLNPLKLDNVAGEWQLWTAAIGDNYRATVVIEGSDRVIKTFGLSDL &field=kcat/Km returns 15000

***
SPPT, Sfp-like phosphopantetheinyl transferase (PPTase) from Synechocystis sp. PCC6803 (protein) MLPQPQIWLCPTDRPLIPGYQALLSSEEMARGERYQRPQDKQRFLTMRLALRILLARQLDCLPQQLQFTYGPQGKPELVDRERRSPWFNVAHSGNYGLIGLSTEGEIGVDLQIMLPKPHYLKLAKRFFAPQEVQQLESLEGEKRTKLFYQLWTAKEAFLKATGKGISGGLNQVIPDENLAKYQYLPDSGDTNHWRLSSQPLLADQGSNDNYWMAIAWCTNEVNQVESNYLPNIQPFQWPRNLDSLP has a reported kcat/Km of 3330

kcat/Km recorded for this protein, Sfp, phosphopantetheinyl transferase from Bacillus subtilis (protein) MKIYGIYMDRPLSQEENERFMTFISPEKREKCRRFYHKEDAHRTLLGDVLVRSVISRQYQLDKSDIRFSTQEYGKPCIPDLPDAHFNISHSGRWVIGAFDSQPIGIDIEKTKPISLEIAKRFFSKTEYSDLLAKDKDEQTDYFYHLWSMKESFIKQEGKGLSLPLDSFSVRLHQDGQVSIELPDSHSPCYIKTYEVDPGYKMAVCAAHPDFPEDITMVSYEELL , is 13300
